Entry source: PubChem BioAssay (NCATS)

test: S16 Schwann cell viability assay (CellTiter-Glo assay) (AID 624031); conditions: S16 rat Schwann cells viability, 24 h; series mostly up to 57.5 µM; also: nearly all actives have a fitted effect of over 70% in size
Inconclusive results are not listed. Activity calls are given as the source filed them. Calls follow the shape of the dose curve; as a rule, active = well fitted cell-killing curve with a large enough effect; inconclusive = small, poorly fitted or top-dose-only effect, or effect the other way; inactive = flat fitted curve, though single readings scatter.
Outcome codes: true (1) for active, false (0) for inactive

compound | assignedCategory
C#C[C@@]1(O)CC[C@@H]2[C@H]3CCC4=C/C(=N\O)CC[C@H]4[C@@H]3CC[C@]21CC | false (0)
CC(=O)N1CC(O)CC1C(=O)O (stereo unspecified) | false (0)
CC[C@H](C)[C@H]1O[C@]2(CC[C@@H]1C)C[C@@H]1C[C@@H](C/C=C(\C)[C@H](O[C@@H]3C[C@H](OC)[C@H](O[C@@H]4C[C@H](OC)[C@@H](O)[C@H](C)O4)[C@H](C)O3)[C@@H](C)/C=C/C=C3\CO[C@@H]4[C@H](O)C(C)=C[C@@H](C(=O)O1)[C@]34O)O2 | true (1)
CCN(CC)C(=O)Nc1ccc(OC[C@H](O)CNC(C)(C)C)c(C(C)=O)c1 | false (0)
CC1(C)C2CC[C@]1(C)[C@@H](O)C2 | false (0)
C=C1CCC(O)C/C1=C/C=C1\CCC[C@]2(C)[C@@H]([C@H](C)/C=C/[C@H](C)C(C)C)CC[C@@H]12 (stereo partly specified) | false (0)
CCCC(=O)Nc1c(I)cc(I)c(C[C@H](CC)C(=O)O)c1I | false (0)
OCC1O[C@H](Oc2ccc(O)cc2)C(O)C(O)C1O (stereo partly specified) | false (0)
O=c1[nH]c(=O)n(C2C[C@H](O)[C@@H](CO)O2)cc1C(F)(F)F (stereo partly specified) | false (0)
CC(CN1CC(=O)NC(=O)C1)N1CC(=O)NC(=O)C1 (stereo unspecified) | false (0)
C=C1/C(=C\C=C2/CCC[C@]3(C)[C@@H]([C@H](C)/C=C/[C@@H](O)C4CC4)CC[C@@H]23)C[C@@H](O)C[C@@H]1O | false (0)
C[n+]1c2cc(N)ccc2cc2ccc(N)cc21 | false (0)
O=C1C(I)=CC(=C(c2cc(I)c(O)c(I)c2)c2ccccc2C(=O)O)C=C1I | false (0)
CCCCCOC(=O)Nc1nc(=O)n(C2O[C@H](C)[C@@H](O)[C@@H]2O)cc1F (stereo partly specified) | false (0)
Nc1nc(/C(=C/CC(=O)O)C(=O)NC2C(=O)N3C(C(=O)O)=CCSC23)cs1 (stereo unspecified) | false (0)
CC1CN(c2c(F)c(N)c3c(=O)c(C(=O)O)cn(C4CC4)c3c2F)CC(C)N1 (stereo unspecified) | false (0)
